%-inhibition of HIPK3 for assorted compounds
Target: panel of more than 300 wild-type and mutant kinases (313 kinase panel) (Homo sapiens)
Assay: Kinase profiling in a biochemical assay panel (mobility shift assays and ELISA), %-inhibition at 1 μM; selectivity entropy
Details: kinase HIPK3; compound at 1 μM
OUTCOME MEASURE: %-inhibition of HIPK3 (%)

{"LINE NOTATION": "COc1cc2c(Nc3ccc(Br)cc3F)ncnc2cc1OCC1CCN(C)CC1", "UNIT STRING": "%", "DATA VALUE": -11}
{"LINE NOTATION": "COc1cc(Nc2c(C#N)cnc3cc(OCCCN4CCN(C)CC4)c(OC)cc23)c(Cl)cc1Cl", "UNIT STRING": "%", "DATA VALUE": -3.66}
{"LINE NOTATION": "N#CC[C@H](C1CCCC1)n1cc(-c2ncnc3[nH]ccc23)cn1", "UNIT STRING": "%", "DATA VALUE": 2}
{"LINE NOTATION": "CO[C@H]1C[C@@H]2CC[C@@H](C)[C@@](O)(O2)C(=O)C(=O)N2CCCC[C@H]2C(=O)O[C@H]([C@H](C)C[C@@H]2CC[C@@H](OCCO)[C@H](OC)C2)CC(=O)[C@H](C)/C=C(\\C)[C@@H](O)[C@@H](OC)C(=O)[C@H](C)C[C@H](C)/C=C/C=C/C=C/1C", "UNIT STRING": "%", "DATA VALUE": -8}
{"LINE NOTATION": "Cc1ccc(Nc2nccc(N(C)c3ccc4c(C)n(C)nc4c3)n2)cc1S(N)(=O)=O", "UNIT STRING": "%", "DATA VALUE": 3}
{"LINE NOTATION": "C[C@@H](Oc1cc(-c2cnn(C3CCNCC3)c2)cnc1N)c1c(Cl)ccc(F)c1Cl", "UNIT STRING": "%", "DATA VALUE": -6}

---

Tested on: forty-four human cancer cell lines
Assay: Cell proliferation assay (ATPlite, 72 hours) in the 44 cell line Oncolines panel
Type: cell-based
Details: Homo sapiens, HCT-116, read-out: cell panel IC50, HCT-116
pIC50: −log10 of the molar value.
OUTCOME MEASURE: pIC50

{"COMPOUND": "CC(C)(C)c1nc(-c2cccc(NS(=O)(=O)c3c(F)cccc3F)c2F)c(-c2ccnc(N)n2)s1 [dabrafenib]", "DATA VALUE": 6.07}
{"COMPOUND": "C[C@@H](Oc1cc(-c2cnn(C3CCNCC3)c2)cnc1N)c1c(Cl)ccc(F)c1Cl [crizotinib]", "DATA VALUE": 5.77}
{"COMPOUND": "N#CC[C@H](C1CCCC1)n1cc(-c2ncnc3[nH]ccc23)cn1 [ruxolitinib]", "DATA VALUE": 4.52}
{"COMPOUND": "CN(C)C/C=C/C(=O)Nc1cc2c(Nc3ccc(F)c(Cl)c3)ncnc2cc1O[C@H]1CCOC1 [afatinib]", "DATA VALUE": 6.03}
{"COMPOUND": "CCN(CC)CCNC(=O)c1c(C)[nH]c(/C=C2\\C(=O)Nc3ccc(F)cc32)c1C [sunitinib]", "DATA VALUE": 5.57}
{"COMPOUND": "Cc1nc(Nc2ncc(C(=O)Nc3c(C)cccc3Cl)s2)cc(N2CCN(CCO)CC2)n1 [dasatinib]", "DATA VALUE": 4.85}

---

Target: panel of more than 300 wild-type and mutant kinases (313 kinase panel) (Homo sapiens, UniProt Q8NE63)
Sequence (Q8NE63 1-616): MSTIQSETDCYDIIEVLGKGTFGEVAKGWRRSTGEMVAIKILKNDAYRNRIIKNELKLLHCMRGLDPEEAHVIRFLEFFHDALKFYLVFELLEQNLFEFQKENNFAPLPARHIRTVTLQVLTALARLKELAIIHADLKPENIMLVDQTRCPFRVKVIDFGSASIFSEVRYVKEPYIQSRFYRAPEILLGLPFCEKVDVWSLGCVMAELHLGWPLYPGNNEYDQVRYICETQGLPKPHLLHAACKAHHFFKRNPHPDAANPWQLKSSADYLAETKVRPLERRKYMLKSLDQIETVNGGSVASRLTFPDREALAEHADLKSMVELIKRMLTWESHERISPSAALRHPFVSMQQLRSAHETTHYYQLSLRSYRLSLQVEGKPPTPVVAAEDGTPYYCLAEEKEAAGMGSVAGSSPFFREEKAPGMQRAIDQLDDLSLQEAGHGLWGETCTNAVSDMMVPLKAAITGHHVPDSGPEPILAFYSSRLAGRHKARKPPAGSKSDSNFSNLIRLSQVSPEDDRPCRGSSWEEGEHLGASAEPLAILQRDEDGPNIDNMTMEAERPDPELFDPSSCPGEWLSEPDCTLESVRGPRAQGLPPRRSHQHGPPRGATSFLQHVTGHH
Assay: Kinase profiling in a biochemical assay panel (mobility shift assays and ELISA), %-inhibition at 1 μM; selectivity entropy
Details: kinase HIPK4; compound at 1 μM

{"LINE NOTATION": "Cc1ccc(Nc2nccc(N(C)c3ccc4c(C)n(C)nc4c3)n2)cc1S(N)(=O)=O", "%-inhibition of HIPK4 [%]": 22}
{"LINE NOTATION": "CCCS(=O)(=O)Nc1ccc(F)c(C(=O)c2c[nH]c3ncc(-c4ccc(Cl)cc4)cc23)c1F", "%-inhibition of HIPK4 [%]": -0.437}
{"LINE NOTATION": "CC(C)(C)c1nc(-c2cccc(NS(=O)(=O)c3c(F)cccc3F)c2F)c(-c2ccnc(N)n2)s1", "%-inhibition of HIPK4 [%]": 92}
{"LINE NOTATION": "Cc1cn(-c2cc(NC(=O)c3ccc(C)c(Nc4nccc(-c5cccnc5)n4)c3)cc(C(F)(F)F)c2)cn1", "%-inhibition of HIPK4 [%]": 37}
{"LINE NOTATION": "CNC(=O)c1cc(Oc2ccc(NC(=O)Nc3ccc(Cl)c(C(F)(F)F)c3)c(F)c2)ccn1", "%-inhibition of HIPK4 [%]": 100}
{"LINE NOTATION": "COc1cc2c(Nc3ccc(Br)cc3F)ncnc2cc1OCC1CCN(C)CC1", "%-inhibition of HIPK4 [%]": 20}
{"LINE NOTATION": "CO[C@H]1C[C@@H]2CC[C@@H](C)[C@@](O)(O2)C(=O)C(=O)N2CCCC[C@H]2C(=O)O[C@H]([C@H](C)C[C@@H]2CC[C@@H](OCCO)[C@H](OC)C2)CC(=O)[C@H](C)/C=C(\\C)[C@@H](O)[C@@H](OC)C(=O)[C@H](C)C[C@H](C)/C=C/C=C/C=C/1C", "%-inhibition of HIPK4 [%]": -6.34}
{"LINE NOTATION": "Cc1ccc(C(=O)Nc2ccc(CN3CCN(C)CC3)c(C(F)(F)F)c2)cc1C#Cc1cnc2cccnn12", "%-inhibition of HIPK4 [%]": 96}
{"LINE NOTATION": "CS(=O)(=O)CCNCc1ccc(-c2ccc3ncnc(Nc4ccc(OCc5cccc(F)c5)c(Cl)c4)c3c2)o1", "%-inhibition of HIPK4 [%]": 9}
{"LINE NOTATION": "C[C@@H](Oc1cc(-c2cnn(C3CCNCC3)c2)cnc1N)c1c(Cl)ccc(F)c1Cl", "%-inhibition of HIPK4 [%]": 31}
{"LINE NOTATION": "CC(=O)Nc1cccc(-n2c(=O)n(C3CC3)c(=O)c3c(Nc4ccc(I)cc4F)n(C)c(=O)c(C)c32)c1", "%-inhibition of HIPK4 [%]": 2.78}
{"LINE NOTATION": "CO[C@H]1C[C@@H]2CC[C@@H](C)[C@@](O)(O2)C(=O)C(=O)N2CCCC[C@H]2C(=O)O[C@H]([C@H](C)C[C@@H]2CC[C@@H](OC(=O)C(C)(CO)CO)[C@H](OC)C2)CC(=O)[C@H](C)/C=C(\\C)[C@@H](O)[C@@H](OC)C(=O)[C@H](C)C[C@H](C)/C=C/C=C/C=C/1C", "%-inhibition of HIPK4 [%]": 2.19}
{"LINE NOTATION": "O=S(=O)(c1cccc2cnccc12)N1CCCNCC1", "%-inhibition of HIPK4 [%]": -0.779}

---

Target: panel of more than 300 wild-type and mutant kinases (313 kinase panel) (Homo sapiens, UniProt P10721, T670I)
Sequence (P10721 26-976 T670I): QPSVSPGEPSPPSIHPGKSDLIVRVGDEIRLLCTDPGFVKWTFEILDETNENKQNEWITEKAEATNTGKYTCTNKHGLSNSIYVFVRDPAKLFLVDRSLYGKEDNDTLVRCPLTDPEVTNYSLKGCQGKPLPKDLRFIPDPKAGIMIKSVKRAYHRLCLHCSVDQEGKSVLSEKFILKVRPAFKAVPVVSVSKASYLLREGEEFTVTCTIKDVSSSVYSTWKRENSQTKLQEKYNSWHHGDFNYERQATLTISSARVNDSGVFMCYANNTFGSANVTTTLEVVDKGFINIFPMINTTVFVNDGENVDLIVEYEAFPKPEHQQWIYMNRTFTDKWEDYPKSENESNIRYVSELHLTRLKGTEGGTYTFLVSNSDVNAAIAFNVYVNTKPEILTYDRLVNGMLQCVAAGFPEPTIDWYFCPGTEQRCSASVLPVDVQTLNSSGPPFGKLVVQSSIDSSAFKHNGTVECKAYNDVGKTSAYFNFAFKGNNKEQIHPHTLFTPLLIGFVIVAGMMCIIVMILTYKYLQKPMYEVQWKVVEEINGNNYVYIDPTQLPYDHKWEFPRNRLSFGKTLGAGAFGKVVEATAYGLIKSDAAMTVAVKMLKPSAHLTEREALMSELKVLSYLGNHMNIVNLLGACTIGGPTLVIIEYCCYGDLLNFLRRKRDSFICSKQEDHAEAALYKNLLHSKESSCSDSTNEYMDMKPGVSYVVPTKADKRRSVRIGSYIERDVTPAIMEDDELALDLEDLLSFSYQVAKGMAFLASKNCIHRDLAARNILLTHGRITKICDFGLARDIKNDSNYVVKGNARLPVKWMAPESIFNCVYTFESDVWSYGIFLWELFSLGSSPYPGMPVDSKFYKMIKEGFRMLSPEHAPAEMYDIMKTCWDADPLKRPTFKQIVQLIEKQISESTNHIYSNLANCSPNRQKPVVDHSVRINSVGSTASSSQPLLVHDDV
Assay: Kinase profiling in a biochemical assay panel (mobility shift assays and ELISA), %-inhibition at 1 μM; selectivity entropy
Conditions: kinase KIT(T670I); compound at 1 μM
OUTCOME MEASURE: %-inhibition of KIT(T670I) (%)

{"COMPOUND": "CC(C)(C)c1nc(-c2cccc(NS(=O)(=O)c3c(F)cccc3F)c2F)c(-c2ccnc(N)n2)s1 [dabrafenib]", "UNIT STRING": "%", "DATA VALUE": 1.7}
{"COMPOUND": "CO[C@H]1C[C@@H]2CC[C@@H](C)[C@@](O)(O2)C(=O)C(=O)N2CCCC[C@H]2C(=O)O[C@H]([C@H](C)C[C@@H]2CC[C@@H](OCCO)[C@H](OC)C2)CC(=O)[C@H](C)/C=C(\\C)[C@@H](O)[C@@H](OC)C(=O)[C@H](C)C[C@H](C)/C=C/C=C/C=C/1C [everolimus]", "UNIT STRING": "%", "DATA VALUE": -2.56}
{"COMPOUND": "C[C@@H](Oc1cc(-c2cnn(C3CCNCC3)c2)cnc1N)c1c(Cl)ccc(F)c1Cl [crizotinib]", "UNIT STRING": "%", "DATA VALUE": 64}
{"COMPOUND": "CO[C@H]1C[C@@H]2CC[C@@H](C)[C@@](O)(O2)C(=O)C(=O)N2CCCC[C@H]2C(=O)O[C@H]([C@H](C)C[C@@H]2CC[C@@H](OC(=O)C(C)(CO)CO)[C@H](OC)C2)CC(=O)[C@H](C)/C=C(\\C)[C@@H](O)[C@@H](OC)C(=O)[C@H](C)C[C@H](C)/C=C/C=C/C=C/1C [temsirolimus]", "UNIT STRING": "%", "DATA VALUE": -4.27}
{"COMPOUND": "CC(=O)Nc1cccc(-n2c(=O)n(C3CC3)c(=O)c3c(Nc4ccc(I)cc4F)n(C)c(=O)c(C)c32)c1 [trametinib]", "UNIT STRING": "%", "DATA VALUE": -3}
{"COMPOUND": "N#CC[C@H](C1CCCC1)n1cc(-c2ncnc3[nH]ccc23)cn1 [ruxolitinib]", "UNIT STRING": "%", "DATA VALUE": -0.512}
{"COMPOUND": "CNC(=O)c1cc(Oc2ccc(NC(=O)Nc3ccc(Cl)c(C(F)(F)F)c3)c(F)c2)ccn1 [regorafenib]", "UNIT STRING": "%", "DATA VALUE": 101}
{"COMPOUND": "COc1cc2nccc(Oc3ccc(NC(=O)C4(C(=O)Nc5ccc(F)cc5)CC4)cc3)c2cc1OC [cabozantinib]", "UNIT STRING": "%", "DATA VALUE": 100}
{"COMPOUND": "O=S(=O)(c1cccc2cnccc12)N1CCCNCC1 [fasudil]", "UNIT STRING": "%", "DATA VALUE": 0.568}
{"COMPOUND": "COc1cc(Nc2c(C#N)cnc3cc(OCCCN4CCN(C)CC4)c(OC)cc23)c(Cl)cc1Cl [bosutinib]", "UNIT STRING": "%", "DATA VALUE": 7}
{"COMPOUND": "CCCS(=O)(=O)Nc1ccc(F)c(C(=O)c2c[nH]c3ncc(-c4ccc(Cl)cc4)cc23)c1F [vemurafenib]", "UNIT STRING": "%", "DATA VALUE": 5.29}
